# assayed.system: MMP-1 (Homo sapiens)
# Construct: purchased Merck Millipore 444208
# Sequence (P03956 100-469): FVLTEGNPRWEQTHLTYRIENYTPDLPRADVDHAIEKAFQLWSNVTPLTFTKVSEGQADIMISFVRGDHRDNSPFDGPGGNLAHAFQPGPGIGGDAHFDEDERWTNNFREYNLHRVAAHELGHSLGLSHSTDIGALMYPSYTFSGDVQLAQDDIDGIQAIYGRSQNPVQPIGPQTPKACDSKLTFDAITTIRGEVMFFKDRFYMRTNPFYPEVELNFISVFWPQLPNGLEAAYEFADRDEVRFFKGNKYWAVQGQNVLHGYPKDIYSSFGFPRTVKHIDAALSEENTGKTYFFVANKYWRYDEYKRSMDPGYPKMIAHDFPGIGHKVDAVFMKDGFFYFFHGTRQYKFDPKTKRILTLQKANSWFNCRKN
# measurement.notes: Fluorometric enzyme inhibition assay, MMP-1
# Format: biochemical
# reported.conditions: isolated enzyme
measurement.name: IC50

IN: # get_value(readout='IC50', item= CC(=O)N[C@@H]1[C@@H](O)[C@H](O)[C@@H](CO)O[C@H]1NC(=S)NCCOCCOCCOCCOCCC(=O)NCCC[C@@H](NS(=O)(=O)c1ccc(OCc2cc(Br)cc(Br)c2)cc1)C(=O)NO )
OUT: > 200 µM

====

# Tested on: SARS-CoV-2
# measurement.notes: microbe, parasite or virus in culture
# Assay type: cell-based
# reported.conditions: Severe acute respiratory syndrome coronavirus 2, Calu-3
measurement.name: EC50

Batch request: EC50 per item, same order as input.
1. O=C(NCCC[C@@H](NS(=O)(=O)c1ccc(OCc2cc(Br)cc(Br)c2)cc1)C(=O)NO)c1cccc(C(=O)NCCC[C@@H](NS(=O)(=O)c2ccc(OCc3cc(Br)cc(Br)c3)cc2)C(=O)NO)c1
2. NC(=O)NCCC[C@@H](NS(=O)(=O)c1ccc(OCc2cc(Br)cc(Br)c2)cc1)C(=O)NO

OUT:
1: 12.7 µM; 2: 8.1 µM

IN: # get_value(readout='EC50', item= CC(=O)N[C@@H]1[C@@H](O)[C@H](O)[C@@H](CO)O[C@H]1NC(=S)NCCOCCOCCOCCOCCC(=O)NCCC[C@@H](NS(=O)(=O)c1ccc(OCc2cc(Br)cc(Br)c2)cc1)C(=O)NO )
OUT: 13.6 µM

====

# assayed.system: Recombinant human ADAM10 (Homo sapiens)
# Sequence (O14672 214-748): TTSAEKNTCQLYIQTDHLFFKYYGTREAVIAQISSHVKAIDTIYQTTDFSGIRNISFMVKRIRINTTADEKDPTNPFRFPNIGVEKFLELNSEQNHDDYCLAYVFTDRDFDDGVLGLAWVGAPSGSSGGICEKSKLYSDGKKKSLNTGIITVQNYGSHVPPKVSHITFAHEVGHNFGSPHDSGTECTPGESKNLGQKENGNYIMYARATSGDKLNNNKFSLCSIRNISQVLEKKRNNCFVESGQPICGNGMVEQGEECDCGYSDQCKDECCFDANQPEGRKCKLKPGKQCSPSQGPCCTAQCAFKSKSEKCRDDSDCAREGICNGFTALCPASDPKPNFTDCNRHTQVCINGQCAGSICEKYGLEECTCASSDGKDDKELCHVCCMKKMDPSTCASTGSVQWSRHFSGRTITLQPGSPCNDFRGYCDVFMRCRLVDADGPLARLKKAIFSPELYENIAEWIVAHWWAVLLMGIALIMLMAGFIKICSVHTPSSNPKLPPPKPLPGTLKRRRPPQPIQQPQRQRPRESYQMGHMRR
# measurement.notes: Fluorometric enzyme inhibition assay, ADAM10
# reported.conditions: isolated enzyme
measurement.name: IC50 (nM)
Numbers only, in nM.

IN: # get_value(readout='IC50', item= CC(=O)N[C@@H]1[C@@H](O)[C@H](O)[C@@H](CO)O[C@H]1NC(=S)NCCOCCOCCOCCOCCC(=O)NCCC[C@@H](NS(=O)(=O)c1ccc(OCc2cc(Br)cc(Br)c2)cc1)C(=O)NO [Compound 2] )
OUT: 810

====

# assayed.system: MMP-9 (Homo sapiens, UniProt P14780)
# Sequence (P14780 107-707 limits assumed): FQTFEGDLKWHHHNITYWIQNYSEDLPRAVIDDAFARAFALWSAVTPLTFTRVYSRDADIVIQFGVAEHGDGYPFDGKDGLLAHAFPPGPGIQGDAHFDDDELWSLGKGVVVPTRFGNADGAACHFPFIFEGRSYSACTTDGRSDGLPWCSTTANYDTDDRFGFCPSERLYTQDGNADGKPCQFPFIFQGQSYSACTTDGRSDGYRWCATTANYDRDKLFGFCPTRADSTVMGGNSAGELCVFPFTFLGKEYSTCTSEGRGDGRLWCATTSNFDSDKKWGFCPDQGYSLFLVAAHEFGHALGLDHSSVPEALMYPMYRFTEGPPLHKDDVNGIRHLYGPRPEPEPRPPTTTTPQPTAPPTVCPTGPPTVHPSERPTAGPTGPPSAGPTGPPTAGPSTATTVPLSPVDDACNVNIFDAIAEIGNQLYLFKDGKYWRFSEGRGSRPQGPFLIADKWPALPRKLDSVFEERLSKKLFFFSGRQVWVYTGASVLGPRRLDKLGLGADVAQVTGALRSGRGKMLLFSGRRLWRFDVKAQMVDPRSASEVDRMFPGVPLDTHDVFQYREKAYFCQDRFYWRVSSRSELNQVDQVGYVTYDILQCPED
# measurement.notes: Fluorometric enzyme inhibition assay, MMP-9
# reported.conditions: isolated enzyme
measurement.name: pIC50
One number for each entry, as −log10 of the molar value.

IN: Which pIC50 is reported with MMP-9 (Homo sapiens, UniProt P14780) for this entry: CC(=O)N[C@@H]1[C@@H](O)[C@H](O)[C@@H](CO)O[C@H]1NC(=S)NCCOCCOCCOCCOCCC(=O)NCCC[C@@H](NS(=O)(=O)c1ccc(OCc2cc(Br)cc(Br)c2)cc1)C(=O)NO ?
OUT: 5.75

====

Assign CC50 at 24 h to each entry below.
# measurement.notes: MTT assay for cell viability
# Format: cell-based
# reported.conditions: human, Calu-3 cells, 24 h, read-out: CC50 (cytotoxic concentration 50%)
Please make sure the unit comes right after the number.

Batch request: CC50 at 24 h per item, same order as input.
1. CC(=O)N[C@@H]1[C@@H](O)[C@H](O)[C@@H](CO)O[C@H]1NC(=S)NCCOCCOCCOCCOCCC(=O)NCCC[C@@H](NS(=O)(=O)c1ccc(OCc2cc(Br)cc(Br)c2)cc1)C(=O)NO
2. NC(=O)NCCC[C@@H](NS(=O)(=O)c1ccc(OCc2cc(Br)cc(Br)c2)cc1)C(=O)NO
3. O=C(NCCC[C@@H](NS(=O)(=O)c1ccc(OCc2cc(Br)cc(Br)c2)cc1)C(=O)NO)c1cccc(C(=O)NCCC[C@@H](NS(=O)(=O)c2ccc(OCc3cc(Br)cc(Br)c3)cc2)C(=O)NO)c1

OUT:
1: 67.2 µM; 2: 77.9 µM; 3: 113 µM

====

# assayed.system: Recombinant human MMP-14 catalytic domain (Homo sapiens, UniProt P50281)
# Construct: Recombinant human MMP-14 catalytic domain was a kind gift of Prof; Gillian Murphy; gift of Prof; Gillian Murphy (Department of Oncology, University of Cambridge, UK)
# measurement.notes: Fluorometric enzyme inhibition assay, MMP-14
# reported.conditions: isolated enzyme
measurement.name: IC50 (µM)
Give bare numbers, in µM.

IN: # get_value(readout='IC50', item= CC(=O)N[C@@H]1[C@@H](O)[C@H](O)[C@@H](CO)O[C@H]1NC(=S)NCCOCCOCCOCCOCCC(=O)NCCC[C@@H](NS(=O)(=O)c1ccc(OCc2cc(Br)cc(Br)c2)cc1)C(=O)NO )
OUT: 70.7

====

# assayed.system: MMP-2 (Homo sapiens)
# Sequence (P08253 110-660): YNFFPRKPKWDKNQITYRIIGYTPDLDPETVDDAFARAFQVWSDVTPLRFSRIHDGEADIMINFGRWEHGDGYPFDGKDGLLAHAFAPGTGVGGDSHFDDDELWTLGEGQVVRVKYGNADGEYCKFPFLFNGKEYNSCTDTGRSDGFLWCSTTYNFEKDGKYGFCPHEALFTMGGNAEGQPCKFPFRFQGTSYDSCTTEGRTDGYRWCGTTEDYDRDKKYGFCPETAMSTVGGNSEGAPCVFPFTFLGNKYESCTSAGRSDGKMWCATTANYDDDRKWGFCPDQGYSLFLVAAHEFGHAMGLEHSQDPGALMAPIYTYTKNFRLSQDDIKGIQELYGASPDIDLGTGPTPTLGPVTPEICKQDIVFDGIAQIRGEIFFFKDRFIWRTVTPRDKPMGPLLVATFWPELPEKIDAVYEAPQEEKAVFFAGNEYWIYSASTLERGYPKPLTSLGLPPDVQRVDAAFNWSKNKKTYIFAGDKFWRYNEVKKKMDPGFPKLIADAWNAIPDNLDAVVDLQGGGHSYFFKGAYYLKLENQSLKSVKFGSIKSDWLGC
# measurement.notes: Fluorometric enzyme inhibition assay, MMP-2
# reported.conditions: isolated enzyme
measurement.name: pIC50
Answers are plain numbers, as −log10 of the molar value.

IN: Which pIC50 is reported with MMP-2 (Homo sapiens) for this entry: CC(=O)N[C@@H]1[C@@H](O)[C@H](O)[C@@H](CO)O[C@H]1NC(=S)NCCOCCOCCOCCOCCC(=O)NCCC[C@@H](NS(=O)(=O)c1ccc(OCc2cc(Br)cc(Br)c2)cc1)C(=O)NO [Compound 2] ?
OUT: 6.49

====

# assayed.system: recombinant human ADAM17 (Homo sapiens)
# Sequence (P78536 215-824): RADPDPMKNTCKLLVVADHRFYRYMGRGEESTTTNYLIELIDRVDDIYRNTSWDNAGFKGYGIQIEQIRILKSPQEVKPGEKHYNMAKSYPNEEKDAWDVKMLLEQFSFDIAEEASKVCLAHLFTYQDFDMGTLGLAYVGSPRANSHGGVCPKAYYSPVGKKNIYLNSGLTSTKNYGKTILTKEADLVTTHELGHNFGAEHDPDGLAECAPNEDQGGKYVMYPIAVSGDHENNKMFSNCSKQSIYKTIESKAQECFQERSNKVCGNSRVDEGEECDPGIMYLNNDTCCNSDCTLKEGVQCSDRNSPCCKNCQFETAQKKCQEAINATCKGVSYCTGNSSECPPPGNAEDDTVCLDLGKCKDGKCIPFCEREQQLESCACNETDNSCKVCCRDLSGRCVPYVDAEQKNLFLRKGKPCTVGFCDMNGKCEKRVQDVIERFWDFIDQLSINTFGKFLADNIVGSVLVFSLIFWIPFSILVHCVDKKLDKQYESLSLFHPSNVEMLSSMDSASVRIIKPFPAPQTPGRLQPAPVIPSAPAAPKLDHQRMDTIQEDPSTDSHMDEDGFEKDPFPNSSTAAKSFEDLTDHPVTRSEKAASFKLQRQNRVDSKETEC
# measurement.notes: Fluorometric enzyme inhibition assay, ADAM17
# reported.conditions: isolated enzyme
measurement.name: IC50

IN: # get_value(readout='IC50', item= CC(=O)N[C@@H]1[C@@H](O)[C@H](O)[C@@H](CO)O[C@H]1NC(=S)NCCOCCOCCOCCOCCC(=O)NCCC[C@@H](NS(=O)(=O)c1ccc(OCc2cc(Br)cc(Br)c2)cc1)C(=O)NO [Compound 2] )
OUT: 5.5 nM
